The measured values listed here are drawn from patent US10065941B2.

Target: human P2X3 receptor (Homo sapiens (Human), UniProt P56373)
Sequence (P56373 whole entry): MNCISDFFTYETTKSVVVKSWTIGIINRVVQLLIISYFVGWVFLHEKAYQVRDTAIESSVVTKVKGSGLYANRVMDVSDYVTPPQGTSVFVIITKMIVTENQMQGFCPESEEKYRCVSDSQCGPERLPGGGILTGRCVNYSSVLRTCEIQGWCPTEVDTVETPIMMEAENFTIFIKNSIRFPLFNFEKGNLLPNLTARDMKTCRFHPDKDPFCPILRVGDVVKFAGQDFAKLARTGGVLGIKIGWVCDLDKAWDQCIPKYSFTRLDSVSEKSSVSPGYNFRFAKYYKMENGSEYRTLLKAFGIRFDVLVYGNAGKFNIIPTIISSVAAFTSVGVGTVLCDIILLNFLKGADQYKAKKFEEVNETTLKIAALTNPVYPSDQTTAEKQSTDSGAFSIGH
Assay: Evaluation of human P2X3 receptor inhibitory activity (Test Example 1)
Conditions: C6BU-1 cell transfected with human P2X3 receptor gene, FLIPR 384
Listed here: items and their measured log10(IC50).
In our notation, the value equals log10 of IC50 in nM.

Consider the following illustrative entries.
COMPOUND: Cc1ccc(Cn2c(=O)n(C[C@H](C)C(=O)O)c(=O)[nH]/c2=N\c2ccc(Oc3cccc(C(F)(F)F)n3)cc2)cc1 [Compound I-039]
METRIC_NAME: log10(IC50)
RECORDED_RESULT: 0.90

COMPOUND: CCOC(=O)C[C@H](O)Cn1c(=O)[nH]/c(=N\c2ccc3oc(CC)c(C)c3c2)n(Cc2ccc(Cl)cc2)c1=O [Compound R-172]
METRIC_NAME: log10(IC50)
RECORDED_RESULT: 1.52

COMPOUND: COC(=O)[C@H](Cn1c(=O)[nH]/c(=N\c2ccc(Oc3ccccn3)cc2)n(Cc2ccc(Cl)cc2)c1=O)OC [Compound I-143]
METRIC_NAME: log10(IC50)
RECORDED_RESULT: 0.70

COMPOUND: COC(=O)[C@@H](C)Cn1c(=O)[nH]/c(=N\c2ccc(Oc3ccc(F)cn3)cc2)n(CC2CC3(CCC3)C2)c1=O [Compound I-269]
METRIC_NAME: log10(IC50)
RECORDED_RESULT: 0.60

COMPOUND: C[C@@H](Cn1c(=O)[nH]/c(=N\c2ccc(Oc3nccnc3Cl)cc2)n(Cc2ccc(Cl)cc2)c1=O)C(=O)O [Compound R-211]
METRIC_NAME: log10(IC50)
RECORDED_RESULT: 0.85

Field log10(IC50) (human P2X3 receptor (Homo sapiens (Human), UniProt P56373)), entry CC(C)Oc1ccc(/N=c2\[nH]c(=O)n([C@H]3C[C@@H](C(=O)O)C3)c(=O)n2Cc2ccc(Cl)cc2)cc1Cl [Compound R-022] : 1.08

Field log10(IC50) (human P2X3 receptor (Homo sapiens (Human), UniProt P56373)), entry COC(=O)c1cccc(-c2ccc(Oc3ccc(/N=c4\[nH]c(=O)[nH]c(=O)n4Cc4ccc(Cl)cc4)cc3)nc2)c1 [Compound R-002] : 2.56

----------
Target: human P2X3 receptor (Homo sapiens (Human))
Assay: Evaluation of human P2X3 receptor inhibitory activity (Test Example 1)
Conditions: C6BU-1 cell transfected with human P2X3 receptor gene, FLIPR 384
METRIC_NAME: pIC50
Notebook: values listed as pIC50 are -log10 of the concentration (mol/L).

Consider the following illustrative entries.
LINE_NOTATION: C[C@@H](Cn1c(=O)[nH]/c(=N\c2ccc(O[C@H](C)C(F)(F)F)c(F)c2)n(Cc2ccc(Cl)cc2)c1=O)C(=O)O
TARGET_SYSTEM: human P2X3 receptor (Homo sapiens (Human))
pIC50: 7.89

LINE_NOTATION: C[C@@H](Cn1c(=O)[nH]/c(=N\c2ccc(Oc3ccnc(C#N)c3)cc2)n(Cc2ccc(Cl)cc2)c1=O)C(=O)O
TARGET_SYSTEM: human P2X3 receptor (Homo sapiens (Human))
pIC50: 8.30

LINE_NOTATION: Cc1nccc(Oc2ccc(/N=c3\[nH]c(=O)n(CC(C)(C)C(=O)O)c(=O)n3Cc3ccc(Cl)cc3)cc2)n1
TARGET_SYSTEM: human P2X3 receptor (Homo sapiens (Human))
pIC50: 7.85

Field pIC50 (human P2X3 receptor (Homo sapiens (Human))), entry C[C@@H](C(=O)O)[C@H](C)n1c(=O)[nH]/c(=N\c2ccc(Oc3cnc(C#N)cn3)cc2)n(Cc2ccc(Cl)cc2)c1=O : 7.92

Field pIC50 (human P2X3 receptor (Homo sapiens (Human))), entry COC(=O)[C@@H](C)Cn1c(=O)[nH]/c(=N\c2ccc(Oc3cccnn3)cc2)n(Cc2ccc(Cl)cc2)c1=O : 8.30

Field pIC50 (human P2X3 receptor (Homo sapiens (Human))), entry Cc1ccc(Cn2c(=O)n(C[C@H](C)C(=O)O)c(=O)[nH]/c2=N\c2ccc(Oc3ncccc3Cl)cc2)cc1 : 8.30

Field pIC50 (human P2X3 receptor (Homo sapiens (Human))), entry COC(=O)[C@@H](C)Cn1c(=O)[nH]/c(=N\c2ccc(Oc3ccccn3)c(C)c2)n(Cc2ccc(C)cc2)c1=O : 8.22

Field pIC50 (human P2X3 receptor (Homo sapiens (Human))), entry C[C@@H](Cn1c(=O)[nH]/c(=N\c2ccc(Oc3ccccn3)cc2)n(Cc2ccc(C(F)F)cc2)c1=O)C(=O)O : 7.89

Field pIC50 (human P2X3 receptor (Homo sapiens (Human))), entry CCn1c(=O)[nH]/c(=N\c2ccc(Oc3ccc(C(=O)OC)c(Cl)n3)cc2)n(Cc2ccc(Cl)cc2)c1=O : 7.92

Field pIC50 (human P2X3 receptor (Homo sapiens (Human))), entry CC1(C)OC[C@@H](Cn2c(=O)[nH]/c(=N\c3ccc(Oc4ccccn4)cc3)n(Cc3ccc(Cl)cc3)c2=O)O1 : 8.30

Field pIC50 (human P2X3 receptor (Homo sapiens (Human))), entry COC(=O)[C@@H](C)Cn1c(=O)[nH]/c(=N\c2ccc(Oc3ccc(Cl)cn3)cc2)n(Cc2ccc(C)cc2)c1=O : 8.30

Field pIC50 (human P2X3 receptor (Homo sapiens (Human))), entry COC(=O)C[C@@H](C)n1c(=O)[nH]/c(=N\c2ccc(Oc3ccc(F)cn3)cc2)n(Cc2ccc(Cl)cc2)c1=O : 8.30

Field pIC50 (human P2X3 receptor (Homo sapiens (Human))), entry Cc1ccc(Cn2c(=O)n(CC(C)(C)C(=O)O)c(=O)[nH]/c2=N\c2ccc(Oc3ncc(C)s3)cc2)cc1 : 7.96
